Recorded SGOT Increase - Index Value values for a group of compounds are listed next.
- Test system: Hepatotoxicity
- ASSAY PROTOCOL: FDA HLAED, serum glutamic oxaloacetic transaminase (SGOT) increase
- CONDITION NOTES: human
MEASUREMENT NAME: SGOT Increase - Index Value

* CO/N=C(\C(=O)N[C@@H]1C(=O)N2C(C(=O)[O-])=C(C[N+]3(C)CCCC3)CS[C@H]12)c1csc(N)n1 | 13.7
* O=P1(N(CCCl)CCCl)NCCCO1 (stereo unspecified) [CYCLOPHOSPHAMIDE ANHYDROUS] | 8.5
* CCC(=O)OCC(=O)[C@@]1(OC(=O)CC)[C@H](C)C[C@H]2[C@H]3[C@H]([C@@H](O)C[C@@]21C)[C@@]1(C)C=CC(=O)C=C1C[C@H]3Cl [ALCLOMETASONE DIPROPIONATE] | 0
* CCOC(=O)Nc1ccc2c(c1)N(C(=O)CCN1CCOCC1)c1ccccc1S2 | 13.7
* CO/N=C(\C(=O)N[C@@H]1C(=O)N2C(C(=O)O)=CCS[C@H]12)c1csc(N)n1 | 7.8
* CN1CCN(C2=Nc3cc(Cl)ccc3Nc3ccccc32)CC1 | 45.1
* OCc1cc(C(O)CNCCCCCCOCCCCc2ccccc2)ccc1O (stereo unspecified) | 0.1
* C[C@]12CC[C@@H]3c4ccc(OC(=O)c5ccccc5)cc4CC[C@H]3[C@@H]1CC[C@@H]2O [ESTRADIOL BENZOATE] | 2.8
* CCN[C@@H]1C[C@H](N)[C@@H](O[C@H]2OC(CN)=CC[C@H]2N)[C@H](O)[C@H]1O[C@H]1OC[C@](C)(O)[C@H](NC)[C@H]1O | 0
* CCOC(=O)CCC(=O)O[C@H]1[C@H](O[C@@H]2[C@@H](C)[C@H](O[C@H]3C[C@@](C)(OC)[C@@H](O)[C@H](C)O3)[C@@H](C)C(=O)O[C@H](CC)[C@@](C)(O)[C@H](O)[C@@H](C)C(=O)[C@H](C)C[C@@]2(C)O)O[C@H](C)C[C@@H]1N(C)C [ERYTHROMYCIN ETHYLSUCCINATE] | 7.9
* CC(CN(C)C)CN1c2ccccc2CCc2ccccc21 (stereo unspecified) | 0
* CCN(CC)CCOc1ccc(/C(=C(/Cl)c2ccccc2)c2ccccc2)cc1 | 18.8
* CC(C)(C)NC[C@H](O)COc1cccc2c1CCCC2=O | 0
* C=C1c2c(Cl)ccc(O)c2C(=O)C2=C(O)[C@]3(O)C(=O)C(C(N)=O)=C(O)[C@@H](N(C)C)[C@@H]3[C@@H](O)[C@H]12 | 0
* CN(C)CC/C=C1/c2ccccc2COc2ccc(CC(=O)O)cc21 | 0

---

- Tested on: Hepatotoxicity
- ASSAY PROTOCOL: FDA HLAED, liver enzyme composite activity
- CONDITION NOTES: human, Liver
MEASUREMENT NAME: Composite Activity - Marginal

• Clc1ccc(C(Cn2ccnc2)OCc2ccsc2Cl)c(Cl)c1 (centres undefined) = 0
• Sc1ncnc2nc[nH]c12 [MERCAPTOPURINE ANHYDROUS] = 0
• COc1ccc2cc([C@H](C)C(=O)O)ccc2c1 = 0
• CC(=O)O[C@H]1C(=O)[C@@]2(C)[C@H]([C@H](OC(=O)c3ccccc3)[C@]3(O)C[C@H](OC(=O)[C@H](O)[C@@H](NC(=O)c4ccccc4)c4ccccc4)C(C)=C1C3(C)C)[C@]1(OC(C)=O)CO[C@@H]1C[C@@H]2O = 1

---

Alkaline Phosphatase Increase - Index Value: recorded values
- Test system: Hepatotoxicity
- ASSAY PROTOCOL: FDA HLAED, alkaline phosphatase increase
- CONDITION NOTES: human
MEASUREMENT NAME: Alkaline Phosphatase Increase - Index Value

- CC(C)/N=c1\cc2n(-c3ccc(Cl)cc3)c3ccccc3nc-2cc1Nc1ccc(Cl)cc1: 76.9
- O=C1CC2(CCCC2)CC(=O)N1CCCCN1CCN(c2ncccn2)CC1: 0.9
- Nc1cc(-c2ccncc2)c[nH]c1=O: 2.2
- COc1cc(CC2c3c(cc(OC)c(OC)c3OC)CC[N+]2(C)CCCOC(=O)CCC(=O)OCCC[N+]2(C)CCc3cc(OC)c(OC)c(OC)c3C2Cc2cc(OC)c(OC)c(OC)c2)cc(OC)c1OC.[Cl-].[Cl-] (centres undefined) [DOXACURIUM CHLORIDE]: 0

---

- Tested on: Hepatotoxicity
- ASSAY PROTOCOL: FDA HLAED, gamma-glutamyl transferase (GGT) increase
- CONDITION NOTES: human
MEASUREMENT NAME: GGT Increase - Number of Reports

* C[C@@]12CCCCC[C@@H](Cc3ccc(O)cc31)[C@@H]2N | < 4
* FCOC(C(F)(F)F)C(F)(F)F | < 4
* CNC(=C[N+](=O)[O-])NCCSCc1ccc(CN(C)C)o1 | < 4
* CC(=O)Nc1ccc(O)cc1 | >= 4
* CCOC(=O)OC(C)OC(=O)[C@@H]1N2C(=O)[C@@H](NC(=O)[C@H](N)c3ccccc3)[C@H]2SC1(C)C (stereo not given in full) | < 4

---

- Tested on: Hepatotoxicity
- ASSAY PROTOCOL: FDA HLAED, serum glutamic pyruvic transaminase (SGPT) increase
- CONDITION NOTES: human
MEASUREMENT NAME: SGPT Increase - Index Value

* CCOC(=O)[C@H](CCc1ccccc1)N[C@@H](C)C(=O)N1Cc2cc(OC)c(OC)cc2C[C@H]1C(=O)O [MOEXIPRIL] | 1.3
* CCC(=O)Oc1ccc2c(c1)CC[C@@H]1[C@@H]2CC[C@]2(C)[C@@H](OC(=O)CC)CC[C@@H]12 [ESTRADIOL DIPROPIONATE] | 2.1
* CC(NCCc1ccc(O)cc1)C(O)c1ccc(O)cc1 (stereo unspecified) [RITODRINE] | 4.2
* Cc1cn([C@H]2C[C@H](N=[N+]=[N-])[C@@H](CO)O2)c(=O)[nH]c1=O [ZIDOVUDINE] | 4.8
* COc1cccc2c1C(=O)c1c(O)c3c(c(O)c1C2=O)C[C@@](O)(C(C)=O)C[C@@H]3O[C@H]1C[C@H](N)[C@H](O)[C@H](C)O1 [DAUNORUBICIN] | 0
* CCC(=O)O[C@H]1[C@H](O[C@@H]2[C@@H](C)[C@H](O[C@H]3C[C@@](C)(OC)[C@@H](O)[C@H](C)O3)[C@@H](C)C(=O)O[C@H](CC)[C@@](C)(O)[C@H](O)[C@@H](C)C(=O)[C@H](C)C[C@@]2(C)O)O[C@H](C)C[C@@H]1N(C)C [ERYTHROMYCIN PROPIONATE] | 8.5
* NCCCNCCSP(=O)(O)O [AMIFOSTINE] | 0
* COc1cc(C(=O)NS(=O)(=O)c2ccccc2C)ccc1Cc1cn(C)c2ccc(NC(=O)OC3CCCC3)cc12 [ZAFIRLUKAST] | 9.5
* NC(=O)OCC(COC(N)=O)c1ccccc1 [FELBAMATE] | 11.7
* COCCc1ccc(OCC(O)CNC(C)C)cc1 (stereo unspecified) [METOPROLOL] | 0.5
* N[C@@H](C(=O)N[C@@H]1C(=O)N2C(C(=O)O)=C(Cl)CS[C@H]12)c1ccccc1 [CEFACLOR ANHYDROUS] | 2.9
* CCOC(=O)c1ccc(C#Cc2ccc3c(c2)C(C)(C)CCS3)nc1 [TAZAROTENE] | 0
* O=C(O)c1cc(-c2ccc(F)cc2F)ccc1O [DIFLUNISAL] | 0.5
* C[C@]12CC[C@H]3[C@@H](CCC4=CC(=O)CC[C@@]43C)[C@@H]1CC[C@@H]2OC(=O)CCC1CCCC1 [TESTOSTERONE CYPIONATE] | 7.2
* CNCCC=C1c2ccccc2CCc2ccccc21 [NORTRIPTYLINE] | 11.6
* COc1ccc(C(CN(C)C)C2(O)CCCCC2)cc1 (stereo unspecified) [VENLAFAXINE] | 2.3

---

- System: Hepatotoxicity
- ASSAY PROTOCOL: FDA HLAED, liver enzyme composite activity
- CONDITION NOTES: human
Each record here notes measured Composite Activity - Active.
MEASUREMENT NAME: Composite Activity - Active

• CCc1c2c(nc3ccc(OC(=O)N4CCC(N5CCCCC5)CC4)cc13)-c1cc3c(c(=O)n1C2)COC(=O)[C@]3(O)CC [IRINOTECAN] = 0
• C[C@@H]1C[C@H]2[C@@H]3CCC4=CC(=O)C=C[C@]4(C)[C@@]3(F)[C@@H](O)C[C@]2(C)[C@@]1(O)C(=O)CO [DEXAMETHASONE] = 0
• Fc1ccc([C@@H]2CCNC[C@H]2COc2ccc3c(c2)OCO3)cc1 [PAROXETINE] = 0
• O=C(O)P(=O)(O)O [FOSCARNET] = 5
• Clc1ccc2c(c1)C(c1ccccc1)=NCc1nncn1-2 [ESTAZOLAM] = 0
• CCn1cc(C(=O)O)c(=O)c2cc(F)c(N3CCNCC3)nc21 [ENOXACIN] = 0
• CN1C(=O)CCS(=O)(=O)C1c1ccc(Cl)cc1 (centres undefined) [CHLORMEZANONE] = 0
• NNC(=O)c1ccncc1 [ISONIAZID] = 5
• CCC1(c2ccccc2)C(=O)NCNC1=O [PRIMIDONE] = 0
